Data origin, for the record: ChEMBL document CHEMBL4689842

Tested on: HEK-293T
test.protocol: Multiplex assay against HEK293T
Type: toxicity, cell-based
cond: human, 24 h, 10 µM, compound concentration 10 uM, replicate 1
measurement.label: Population Apoptotic (%)
Please append the unit to your numeric answer.

Cl.O=c1c2cccn2c2ccccc2n1CCCN1CCC(c2ccc(Cl)cc2)CC1	84%
CCCn1c(=O)c2[nH]c(-c3cnn(Cc4cccc(C(F)(F)F)c4)c3)nc2n(CC)c1=O	47%
CCCS(=O)(=O)c1nc(NC2CC2)cc(-c2ccc3c(ccn3C3CC(C)(C)NC(C)(C)C3)c2)n1	60%
CCn1c(=O)c(-c2ccc(-c3cncs3)cc2Cl)cc2cnc(Nc3ccc(N4CCN(C)CC4)cc3)nc21	59%
Cc1cn(-c2cc(NC(=O)c3ccc(C)c(Nc4nccc(-c5cccnc5)n4)c3)cc(C(F)(F)F)c2)cn1	87%
CCn1cc(-c2ccnc3[nH]c(-c4cccc(CN(C)C)c4)cc23)c(-c2ccc(NC(=O)N(C)C)cc2)n1	31%
COCC(=O)NC/C=C/c1ccc2ncnc(Nc3ccc(Oc4ccc(C)nc4)c(C)c3)c2c1	71%
CNC(=O)c1ccc(Nc2nc(OC3CCCC3)c3c(-c4ccc5nc(C)oc5c4)c[nH]c3n2)c(OC)c1	24%

Query: // Population Apoptotic (%) lookup, key: `CCc1cccc(CC)c1NC(=O)c1nn(C)c2c1CCc1cnc(Nc3ccc(N4CCN(C)CC4)cc3OC)nc1-2`
Reply: 27%

Query: // Population Apoptotic (%) lookup, key: `S=C(NCCCc1c[nH]cn1)NCCCN(Cc1ccc(Cl)c(Cl)c1)c1ccc(Br)cn1`
Reply: 82%

Query: // Population Apoptotic (%) lookup, key: `Cc1ccc2nc(NCCN)c3ncc(C)n3c2c1.O=C(O)C(F)(F)F.O=C(O)C(F)(F)F`
Reply: 38%

* * *

System: U2OS
test.protocol: Multiplex assay against U2OS
Assay type: toxicity, cell-based
cond: human, 12 h, 1 µM, compound concentration 1 uM, replicate 2
measurement.label: Population Pyknosed Nuclei (%)
Report only the number, with the unit % understood.

In the examples that follow, each entry is paired with its recorded Population Pyknosed Nuclei (%).
COc1cc2ncnc(Nc3ccc(F)c(Cl)c3)c2cc1NC(=O)/C=C/CN1CCCCC1 [DACOMITINIB ANHYDROUS]	4
CCN1CCN(Cc2ccc(Nc3ncc(F)c(-c4cc(F)c5nc(C)n(C(C)C)c5c4)n3)nc2)CC1.CS(=O)(=O)O	14
S=C(NCCCc1c[nH]cn1)NCCCN(Cc1ccc(Cl)c(Cl)c1)c1ccc(Br)cn1	0
CN1C2CCC1CC(OC(c1ccc(F)cc1)c1ccc(F)cc1)C2.Cl (configuration not stated)	1
CN1CCC(=C2c3ccccc3CC(=O)c3sccc32)CC1.O=C(O)/C=C/C(=O)O [KETOTIFEN FUMARATE]	6

Query: // Population Pyknosed Nuclei (%) lookup, key: `CNC(=O)c1ccc(Nc2nc(OC3CCCC3)c3c(-c4ccc5nc(C)oc5c4)c[nH]c3n2)c(OC)c1`
Reply: 13

Query: // Population Pyknosed Nuclei (%) lookup, key: `CCN1CCN(c2ccc(Nc3cc(N(C)C(=O)Nc4c(Cl)c(OC)cc(OC)c4Cl)ncn3)cc2)CC1`
Reply: 21

Query: // Population Pyknosed Nuclei (%) lookup, key: `COc1ccc(S(=O)(=O)N(CCO)c2ccccc2CN(C)C/C=C/c2ccc(Cl)cc2)cc1.O=P(O)(O)O`
Reply: 15

Query: // Population Pyknosed Nuclei (%) lookup, key: `O=C1N/C(=N/c2ccccc2F)S/C1=C\c1ccc(C(=O)O)cc1`
Reply: 3

Query: // Population Pyknosed Nuclei (%) lookup, key: `O=C(Nc1ccc(-n2nc(-c3cccnc3)cc2C(F)(F)F)cn1)c1ccc(-c2ccccc2)c(F)c1`
Reply: 9

Query: // Population Pyknosed Nuclei (%) lookup, key: `O=C(Nc1ccc(-c2ccnc(Nc3ccc(N4CCOCC4)cc3)n2)cc1)[C@@H]1CCCN1`
Reply: 10

Query: // Population Pyknosed Nuclei (%) lookup, key: `Cc1ccc2nc(NCCN)c3ncc(C)n3c2c1.O=C(O)C(F)(F)F.O=C(O)C(F)(F)F`
Reply: 16

Query: // Population Pyknosed Nuclei (%) lookup, key: `CCc1cccc(CC)c1NC(=O)c1nn(C)c2c1CCc1cnc(Nc3ccc(C(=O)NC4CCN(C)CC4)cc3OC(F)(F)F)nc1-2`
Reply: 15

Query: // Population Pyknosed Nuclei (%) lookup, key: `CCOc1cc(C(=O)N2CCC(N3CCN(C)CC3)CC2)ccc1Nc1ncc2c(n1)N(C1CCCC1)c1ccccc1C(=O)N2C`
Reply: 12

Query: // Population Pyknosed Nuclei (%) lookup, key: `COc1cc(N2CCN(C)CC2)ccc1Nc1ncc2c(n1)N(C)c1ccccc1C(=O)N2C`
Reply: 12

Query: // Population Pyknosed Nuclei (%) lookup, key: `COC(=N)c1nc2ccc3ncnc(Nc4ccc(OC)cc4F)c3c2s1`
Reply: 13

Query: // Population Pyknosed Nuclei (%) lookup, key: `O=C(Nc1ccc(Cl)cc1)Nc1cccc(-c2cccc(N3CCCC3)n2)c1`
Reply: 6

* * *

System: HEK-293T
test.protocol: Multiplex assay against HEK293T
Format: toxicity, cell-based
cond: human, 48 h, 10 µM, compound concentration 10 uM, replicate 2
measurement.label: Population Pyknosed Nuclei (%)
Report only the number, with the unit % understood.

Query: // Population Pyknosed Nuclei (%) lookup, key: `C=C1/C(=C\C=C2/CCC[C@]3(C)[C@@H]([C@H](C)/C=C/[C@H](C)C(C)C)CC[C@@H]23)C[C@@H](O)C[C@@H]1O`
Reply: 11

Query: // Population Pyknosed Nuclei (%) lookup, key: CCOC(=O)c1c(C)[nH]c2ccc3c(c12)CN1CCc2cc(OC)ccc2C1O3 (stereo not drawn)
Reply: 80

Query: // Population Pyknosed Nuclei (%) lookup, key: `O=C1NC(=O)C(c2cnc3ccccn23)=C1c1cn2c3c(cc(F)cc13)CN(C(=O)N1CCCCC1)CC2`
Reply: 27

Query: // Population Pyknosed Nuclei (%) lookup, key: `COc1cc(N2CCN(C)CC2)ccc1Nc1ncc2c(n1)N(C)c1ccccc1C(=O)N2C`
Reply: 59

Query: // Population Pyknosed Nuclei (%) lookup, key: `S=C(NCCCc1c[nH]cn1)NCCCN(Cc1ccc(Cl)c(Cl)c1)c1ccc(Br)cn1`
Reply: 74

Query: // Population Pyknosed Nuclei (%) lookup, key: `O=C(Cc1ccc(-c2ccc(OCCN3CCOCC3)cc2)cn1)NCc1ccccc1`
Reply: 52

Query: // Population Pyknosed Nuclei (%) lookup, key: `Cl.O=c1c2cccn2c2ccccc2n1CCCN1CCC(c2ccc(Cl)cc2)CC1`
Reply: 43

Query: // Population Pyknosed Nuclei (%) lookup, key: `Cl.O=C(c1ccc(Nc2nccc(-c3cc4ccccc4s3)n2)cc1)N1CCC(N2CCCC2)CC1`
Reply: 75

* * *

Test system: HEK-293T
test.protocol: Multiplex assay against HEK293T
Type: toxicity, cell-based
cond: human, 24 h, 10 µM, compound concentration 10 uM, replicate 1
measurement.label: Population Hoechst High Intensity Objects (%)
Report only the number, with the unit % understood.

CCOc1cc2ncc(C#N)c(Nc3ccc(OCc4ccccn4)c(Cl)c3)c2cc1NC(=O)/C=C/CN(C)C	30
Cc1cn(-c2cc(NC(=O)c3ccc(C)c(Nc4nccc(-c5cccnc5)n4)c3)cc(C(F)(F)F)c2)cn1	50
CN1C2CCC1CC(OC(c1ccc(F)cc1)c1ccc(F)cc1)C2.Cl (centres undefined)	20

# ---- query compound ----
Query: // Population Hoechst High Intensity Objects (%) lookup, key: `COCC(=O)NC/C=C/c1ccc2ncnc(Nc3ccc(Oc4ccc(C)nc4)c(C)c3)c2c1`
Reply: 19

* * *

Test system: Fibroblast
test.protocol: Incucyte cell viability with human fibroblast; note: filed as whole numbers so only -1 and 0 and 1 occur
Assay type: toxicity, cell-based
cond: 18 h, 10 µM, compound concentration 10 uM, replicate number 1, timepoint 18 hours
Below, each of the compounds is paired with its reported Growth Rate value.
Give a plain numeric answer without units written out.

In the examples that follow, each entry is paired with its recorded Growth Rate.
Cc1ccc2nc(NCCN)c3ncc(C)n3c2c1.O=C(O)C(F)(F)F.O=C(O)C(F)(F)F	0
O=C(Nc1ccc(Cl)cc1)Nc1cccc(-c2cccc(N3CCCC3)n2)c1	0
OCCn1cc(-c2cnc3nnn(Cc4ccc5ncccc5c4)c3n2)cn1	1
CN1CCN(C(=O)C(C)(C)c2ccc(C(=O)Nc3cn4cc(-c5cc(C(C)(C)C)cc(C(C)(C)C)c5)ccc4n3)cc2)CC1	1
CCC(=N\O)/C(C)=C/c1ccc(F)c(C)c1	0
O=C(c1ccc(C(=O)N2CCC(N3CCCC3)CC2)c(Nc2ccccc2)c1)N1CCC(N2CCCC2)CC1	1
CC(C)NC(=O)c1ccc(C#Cc2ccncc2)cn1	1
COC1CCN(c2cccc(-c3cc(NC(C)=O)nc(-n4nc(C)cc4C)n3)n2)CC1	1

# ---- query compound ----
Query: // Growth Rate lookup, key: `CCCCCCCCCCCCCCCCOC[C@H](COP(=O)([O-])OCC[N+](C)(C)C)OC(C)=O`
Reply: 1
